The reported numbers originate from paper PMC11191402.

molecular target: cell-expressed CAIX (HeLa cells grown under hypoxia) (Homo sapiens); construct: The cells were grown under hypoxia and not transfected; endogenous in cells; test: Competition assay with fluorescein-labeled GZ19-32 in live hypoxia-grown HeLa cells; details: 10 nM GZ19-32, Pt 2 nM CAIX
I'd be grateful if you could share measured Kd for these entries.
Numbers only, in nM.

For every listed record, write down its Kd.
1. CC1(C)C(/C=C/C2=C(Oc3ccc(CCC(=O)NCCOCCOCCOCCOCCOCCOCCOCCOCCOCCOCCOCCNC(=O)CCS(=O)(=O)c4c(F)c(F)c(S(N)(=O)=O)c(F)c4NC4CCCCCCC4)cc3)C(=C/C=C3\N(CCCCS(=O)(=O)[O-])c4ccccc4C3(C)C)/CCC2)=[N+](CCCCS(=O)(=O)[O-])c2ccccc21.[Na+]
2. CC1(C)C(/C=C/C2=C(NCCCOCCOCCOCCCNC(=O)CCC(=O)NCCS(=O)(=O)c3c(F)c(F)c(S(N)(=O)=O)c(F)c3NC3CCCCCCC3)C(=C/C=C3\N(CCCCS(=O)(=O)[O-])c4ccccc4C3(C)C)/CCC2)=[N+](CCCCS(=O)(=O)[O-])c2ccccc21.[Na+]
3. CC1(C)C(/C=C/C2=C(Oc3cccc(CC(=O)NCCCOCCOCCOCCCNC(=O)CCS(=O)(=O)c4c(F)c(F)c(S(N)(=O)=O)c(F)c4NC4CCCCCCC4)c3)C(=C/C=C3\N(CCCCS(=O)(=O)[O-])c4ccccc4C3(C)C)/CCC2)=[N+](CCCCS(=O)(=O)[O-])c2ccccc21.[Na+]

Response:
1: 1.5; 2: 15; 3: 4

Kd reported for this compound CC1(C)C(/C=C/C2=C(Oc3ccc(CCC(=O)NCCCOCCOCCOCCCNC(=O)CCS(=O)(=O)c4c(F)c(F)c(S(N)(=O)=O)c(F)c4NC4CCCCCCC4)cc3)C(=C/C=C3\N(CCCCS(=O)(=O)[O-])c4ccccc4C3(C)C)/CCC2)=[N+](CCCCS(=O)(=O)[O-])c2ccccc21.[Na+] : 6

----------
molecular target: human recombinant CAXII (Homo sapiens); construct: Most isozymes were truncated, and only the catalytic domains of the proteins were produced; made in house; host or cells: bacterial expression system; experiment: Fluorescence-based thermal shift assay (FTSA), CAXII; format: binding; conditions: 37 °C, pH 7.0
Sequence (O43570 30-289 limits assumed): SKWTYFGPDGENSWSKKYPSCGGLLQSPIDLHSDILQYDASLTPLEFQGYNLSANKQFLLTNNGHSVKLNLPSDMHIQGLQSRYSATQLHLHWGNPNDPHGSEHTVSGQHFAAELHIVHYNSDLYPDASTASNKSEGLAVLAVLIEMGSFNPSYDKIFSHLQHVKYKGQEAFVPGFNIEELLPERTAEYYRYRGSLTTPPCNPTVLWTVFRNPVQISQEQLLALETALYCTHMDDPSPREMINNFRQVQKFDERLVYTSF
measured_metric: Kd (nM)
Answers are plain numbers, in nM.

Here's what some known entries look like.
>  <smiles_code>
CC1(C)C(/C=C/C2=C(Oc3ccc(CCC(=O)NCCCOCCOCCOCCCNC(=O)CCS(=O)(=O)c4c(F)c(F)c(S(N)(=O)=O)c(F)c4NC4CCCCCCC4)cc3)C(=C/C=C3\N(CCCCS(=O)(=O)[O-])c4ccccc4C3(C)C)/CCC2)=[N+](CCCCS(=O)(=O)[O-])c2ccccc21.[Na+]

>  <u>
nM

>  <Kd>
200

$$$$
>  <smiles_code>
CC1(C)C(/C=C/C2=C(NCCCOCCOCCOCCCNC(=O)CCC(=O)NCCS(=O)(=O)c3c(F)c(F)c(S(N)(=O)=O)c(F)c3NC3CCCCCCC3)C(=C/C=C3\N(CCCCS(=O)(=O)[O-])c4ccccc4C3(C)C)/CCC2)=[N+](CCCCS(=O)(=O)[O-])c2ccccc21.[Na+]

>  <u>
nM

>  <Kd>
50

$$$$

For every listed record, write down its Kd.
1. CC1(C)C(/C=C/C2=C(Oc3ccc(CCC(=O)NCCOCCOCCOCCOCCOCCOCCOCCOCCOCCOCCOCCNC(=O)CCS(=O)(=O)c4c(F)c(F)c(S(N)(=O)=O)c(F)c4NC4CCCCCCC4)cc3)C(=C/C=C3\N(CCCCS(=O)(=O)[O-])c4ccccc4C3(C)C)/CCC2)=[N+](CCCCS(=O)(=O)[O-])c2ccccc21.[Na+]
2. CC1(C)C(/C=C/C2=C(Oc3cccc(CC(=O)NCCCOCCOCCOCCCNC(=O)CCS(=O)(=O)c4c(F)c(F)c(S(N)(=O)=O)c(F)c4NC4CCCCCCC4)c3)C(=C/C=C3\N(CCCCS(=O)(=O)[O-])c4ccccc4C3(C)C)/CCC2)=[N+](CCCCS(=O)(=O)[O-])c2ccccc21.[Na+]

Response:
80
60

----------
biological target: human recombinant CAIV (Homo sapiens, UniProt P22748); construct: Most isozymes were truncated, and only the catalytic domains of the proteins were produced; made in house; host or cells: bacterial expression system; experiment: Fluorescence-based thermal shift assay (FTSA), CAIV; assay type: binding; conditions: 37 °C, pH 7.0
Sequence (P22748 21-285 limits assumed): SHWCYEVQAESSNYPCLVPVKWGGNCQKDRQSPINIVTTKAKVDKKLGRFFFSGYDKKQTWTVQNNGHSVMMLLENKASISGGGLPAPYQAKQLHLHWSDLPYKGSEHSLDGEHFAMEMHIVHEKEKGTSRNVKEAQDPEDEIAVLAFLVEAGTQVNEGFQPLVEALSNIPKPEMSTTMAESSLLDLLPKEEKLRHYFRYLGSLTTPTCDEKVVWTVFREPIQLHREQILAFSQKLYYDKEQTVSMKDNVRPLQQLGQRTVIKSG
I'd be grateful if you could share measured pKd for these entries.
One number for each entry, as −log10 of the molar value.

>  <smiles_code>
CC1(C)C(/C=C/C2=C(NCCCOCCOCCOCCCNC(=O)CCC(=O)NCCS(=O)(=O)c3c(F)c(F)c(S(N)(=O)=O)c(F)c3NC3CCCCCCC3)C(=C/C=C3\N(CCCCS(=O)(=O)[O-])c4ccccc4C3(C)C)/CCC2)=[N+](CCCCS(=O)(=O)[O-])c2ccccc21.[Na+]

>  <pKd>
5.10

$$$$
>  <smiles_code>
CC1(C)C(/C=C/C2=C(Oc3ccc(CCC(=O)NCCCOCCOCCOCCCNC(=O)CCS(=O)(=O)c4c(F)c(F)c(S(N)(=O)=O)c(F)c4NC4CCCCCCC4)cc3)C(=C/C=C3\N(CCCCS(=O)(=O)[O-])c4ccccc4C3(C)C)/CCC2)=[N+](CCCCS(=O)(=O)[O-])c2ccccc21.[Na+]

>  <pKd>
5.15

$$$$
>  <smiles_code>
CC1(C)C(/C=C/C2=C(Oc3ccc(CCC(=O)NCCOCCOCCOCCOCCOCCOCCOCCOCCOCCOCCOCCNC(=O)CCS(=O)(=O)c4c(F)c(F)c(S(N)(=O)=O)c(F)c4NC4CCCCCCC4)cc3)C(=C/C=C3\N(CCCCS(=O)(=O)[O-])c4ccccc4C3(C)C)/CCC2)=[N+](CCCCS(=O)(=O)[O-])c2ccccc21.[Na+]

>  <pKd>
5.10

$$$$

In the following, a different compound is considered.
pKd reported for this compound CC1(C)C(/C=C/C2=C(Oc3cccc(CC(=O)NCCCOCCOCCOCCCNC(=O)CCS(=O)(=O)c4c(F)c(F)c(S(N)(=O)=O)c(F)c4NC4CCCCCCC4)c3)C(=C/C=C3\N(CCCCS(=O)(=O)[O-])c4ccccc4C3(C)C)/CCC2)=[N+](CCCCS(=O)(=O)[O-])c2ccccc21.[Na+] : 5.70

----------
molecular target: human recombinant CAII (Homo sapiens, UniProt P00918); construct: made in house; host or cells: bacterial expression system; assay: Fluorescence-based thermal shift assay (FTSA), CAII; format: binding; conditions: 37 °C, pH 7.0
I'd be grateful if you could share measured pKd for these entries.
Give bare numbers, as −log10 of the molar value.

Here's what some known entries look like.
>  <smiles_code>
CC1(C)C(/C=C/C2=C(Oc3cccc(CC(=O)NCCCOCCOCCOCCCNC(=O)CCS(=O)(=O)c4c(F)c(F)c(S(N)(=O)=O)c(F)c4NC4CCCCCCC4)c3)C(=C/C=C3\N(CCCCS(=O)(=O)[O-])c4ccccc4C3(C)C)/CCC2)=[N+](CCCCS(=O)(=O)[O-])c2ccccc21.[Na+]

>  <system_tested>
human recombinant CAII (Homo sapiens, UniProt P00918)

>  <pKd>
6.40

$$$$
>  <smiles_code>
CC1(C)C(/C=C/C2=C(Oc3ccc(CCC(=O)NCCOCCOCCOCCOCCOCCOCCOCCOCCOCCOCCOCCNC(=O)CCS(=O)(=O)c4c(F)c(F)c(S(N)(=O)=O)c(F)c4NC4CCCCCCC4)cc3)C(=C/C=C3\N(CCCCS(=O)(=O)[O-])c4ccccc4C3(C)C)/CCC2)=[N+](CCCCS(=O)(=O)[O-])c2ccccc21.[Na+]

>  <system_tested>
human recombinant CAII (Homo sapiens, UniProt P00918)

>  <pKd>
6.70

$$$$
>  <smiles_code>
CC1(C)C(/C=C/C2=C(Oc3ccc(CCC(=O)NCCCOCCOCCOCCCNC(=O)CCS(=O)(=O)c4c(F)c(F)c(S(N)(=O)=O)c(F)c4NC4CCCCCCC4)cc3)C(=C/C=C3\N(CCCCS(=O)(=O)[O-])c4ccccc4C3(C)C)/CCC2)=[N+](CCCCS(=O)(=O)[O-])c2ccccc21.[Na+]

>  <system_tested>
human recombinant CAII (Homo sapiens, UniProt P00918)

>  <pKd>
7.70

$$$$

In the following, a different compound is considered.
pKd reported for this compound CC1(C)C(/C=C/C2=C(NCCCOCCOCCOCCCNC(=O)CCC(=O)NCCS(=O)(=O)c3c(F)c(F)c(S(N)(=O)=O)c(F)c3NC3CCCCCCC3)C(=C/C=C3\N(CCCCS(=O)(=O)[O-])c4ccccc4C3(C)C)/CCC2)=[N+](CCCCS(=O)(=O)[O-])c2ccccc21.[Na+] : 5.70
